Assign cytotoxicity at 70.5 h to each entry below.
- METHOD: Human HepG2 cell viability assay in 384 well format
- Format: toxicity, cell-based
- Parameters: dose 125 nL, time 70.5 hour; concentration not given beside the values
- CONDITION DETAILS: HepG2 cells, read-out: Inhibition
Respond with the bare value in %.

Which measured cytotoxicity at 70.5 h value corresponds to CCc1nc(C2CCCN(C(=O)c3ccc(O)nc3)C2)no1 (stereo not drawn) ? 3.29

Please answer likewise for COc1ccc(Cl)cc1NCCC(=O)NCCNc1cnccn1 3.74

Please answer likewise for Fc1cccnc1O[C@H]1CN(Cc2ccoc2)[C@@H]2CCCO[C@H]12 -4.66

Please answer likewise for COc1ccc([C@@H]2CN(C(=O)CS(C)(=O)=O)C[C@H]2NC(C)=O)cc1 -2.94

Please answer likewise for Cc1c(C(C)NCc2cnn(C)c2)cnn1-c1ccccc1 (stereo not drawn) 2.44

Please answer likewise for CC(=O)NCCCSC1CCN(c2c(F)cccc2F)C1=O (stereo not drawn) 22.9

Please answer likewise for Cc1sc2nc(C(F)(F)F)nc(N3CCN(C)CC3)c2c1C -4.17

Please answer likewise for CC(C)CN1C[C@@H]2CN(C(=O)c3cccn3C)C[C@@H]2C1=O -7.2

Please answer likewise for CCC(C)N(C)CCNC(=O)c1ccccc1OCCOC (stereo not drawn) -6.03

Please answer likewise for Cc1nn(C)c(C)c1S(=O)(=O)N1CC[C@H]2O[C@@H](C)C[C@H]2C1 -8.7

Please answer likewise for COCC(=O)N1C[C@@H](CN2CCCN(C)CC2)[C@@H](CO)C1 -4.72

Please answer likewise for COCCn1c2c(ccc1=O)CCN(C(=O)Cc1ccsc1)CC2 2.04

Please answer likewise for C[C@]1(O)CN(Cc2ncc[nH]2)CC[C@@H]1Oc1cccc(F)c1 -1.65

Please answer likewise for Cn1cc(CN2C[C@H]3CN(c4cncnc4)C(=O)[C@H]3C2)cn1 -2.54

Please answer likewise for CCN(C(=O)CCc1ccccc1)C1CC(=O)NC1=O (stereo not drawn) 0.716

Please answer likewise for Cc1nc(CN(C)C2CCN(CC(=O)N3CCOCC3)C2)no1 (stereo not drawn) -12.6

Please answer likewise for O=C(NCCCN1CCOCC1)c1ccnc(OCc2ccccc2)c1 -1.25

Please answer likewise for O=C(NCc1csc(Br)c1)c1cnccn1 -13.5

Please answer likewise for COc1cccc(CN2CCC(c3nn(CCN)c4nccnc34)C2)c1 (stereo not drawn) 17

Please answer likewise for COc1c(F)cccc1C(=O)N(C)Cc1nc(-c2ccccn2)no1 -6.48

Please answer likewise for CCO[C@@H]1CC[C@H]2[C@H]1OCCN2C(=O)c1ccc(OC)c(F)c1 -4.73

Please answer likewise for O=S(=O)(NC1CCC12CCN(CC1CC1)CC2)c1ccccc1 (stereo not drawn) 11.7

Please answer likewise for Cn1c(C2CCCN2C(=O)CN2CSCC2=O)nc2ccccc21 (stereo not drawn) -5.23

* * *

Assign cytotoxicity at 70.5 h to each entry below.
- METHOD: Human HepG2 cell viability assay in 384 well format
- Type: toxicity, cell-based
- Parameters: dose 125 nL, time 70.5 hour; concentration not given beside the values
- CONDITION DETAILS: HepG2 cells, read-out: Inhibition
Respond with the bare value in %.

Which measured cytotoxicity at 70.5 h value corresponds to CCn1nnc2c1C(COC)CN(Cc1cccs1)C2 (configuration not stated) ? 1.81

Please answer likewise for COc1ccccc1NC(=O)CCNC(=O)c1ccoc1 0.887

Please answer likewise for CCc1cccc(CC(=O)NC2CCN(C(=O)NC(C)(C)C)CC2)c1 1.52

Please answer likewise for Cc1ccc(NS(=O)(=O)c2cc3c(c(C(=O)O)c2)OCCO3)c(F)c1 44.6

Please answer likewise for COc1ccccc1S(=O)(=O)N1CC(N(C)C)Cc2ccccc21 (configuration not stated) 30.7

Please answer likewise for Cc1cc(CSCc2ccccn2)on1 -1.54

Please answer likewise for CCOCc1cc(CNC2CCCc3c2cnn3CC)ccc1OC (configuration not stated) -1.88

Please answer likewise for COCCCn1nnc(C2(NC(=O)c3ccccc3)CCCC2)n1 -12.2

Please answer likewise for CCS(=O)(=O)N1CCc2cc(C(=O)NC)c(NCC(C)C)nc2CC1 -4.65

Please answer likewise for CO[C@H]1CN(C(=O)c2ccc[nH]2)[C@@H]2COC[C@H]12 -2.94

Please answer likewise for CC(c1cccnc1)N1CCN(CCO)CC1 (configuration not stated) 7.45

Please answer likewise for Cc1nn(C)c2nc(-c3ccccn3)nc(NC[C@@H]3CCCO3)c12 2.37
